tested on: RPMI-8226; test: NCI tumour cell line growth inhibition, 48 h
Activity calls are given as the source filed them. No stated cut-off is given here; in the data, active = GI50 up to about 1.1 µM and inactive = higher.
This section presents molecules with their documented GI50 values.
reportedEndpoint: GI50

>>> df
                                   molecule       measuredresult
0  NC(=S)Nc1ccc(S(=O)(=O)Nc2ccc(S(N)(=O)=O)cc2)cc1  > 100 µM (inactive)
1  CCCNC(=O)c1cc(NC(=O)c2cc(NC(=O)CCS(=O)(=O)OC)cn2C)cn1C  > 100 µM (inactive)
2   Cc1ccc(C(=O)/C=C2/Nc3ccccc3NC2=O)c(C)c1   25.2 µM (inactive)
3  CCCCCC1C2C(=O)NC(=O)C1C(=O)NC2=O (centres undefined)  > 100 µM (inactive)
4  CC(=O)O[C@H]1[C@@H](N2CCN(C)CC2)C[C@H]2[C@@H]3CC=C4C[C@@H](N5CCCC5)CC[C@]4(C)[C@H]3CC[C@@]21C   19.2 µM (inactive)
5  O=C1c2ccc(O)cc2OC(c2cc(O)c(O)c(O)c2)C1O (centres undefined) [DIHYDROBINETIN]   17.8 µM (inactive)
6  CC1OC(=O)c2ccccc2NC1=O (centres undefined)  > 100 µM (inactive)
7  N=C(N)N/N=C(/c1nc2ccc([N+](=O)[O-])cc2[nH]c1=O)C(O)c1ccc([N+](=O)[O-])cc1 (centres undefined)  > 100 µM (inactive)
8  CC(=O)C(CN(C)C)C(c1ccccc1)c1c(O)c2ccccc2oc1=O (centres undefined)  > 100 µM (inactive)

* * *

system: BT-549; assay: NCI tumour cell line growth inhibition, 48 h
Activity calls are given as the source filed them. No stated cut-off is given here; in the data, active = GI50 up to about 1.1 µM and inactive = higher.
reportedEndpoint: GI50

compound	measuredResult
O=C(/C=C/c1ccc2c(c1)OCO2)c1ccc(O)cc1	14.2 µM (inactive)
COc1ccc(/N=C2\S/C(=N\C(=N\c3ccccc3)SCc3ccccc3)N(c3ccccc3)\C2=N/c2ccc(OC)cc2)cc1	> 100 µM (inactive)
CCCCCC/C=C/C#CCCCCCCCC(=O)O	> 100 µM (inactive)
COc1ccc(NCC(=O)Nn2c(C)nc3ccc(S(=O)(=O)Nc4ccc(OC)cc4)cc3c2=O)cc1	> 100 µM (inactive)
CN(Cc1cnc2nc(N)nc(N)c2n1)c1ccc(C(=O)NC(CCC(=O)NC(CC(P(=O)(O)O)P(=O)(O)O)C(=O)O)C(=O)O)cc1 (stereo not given)	> 100 µM (inactive)
O=C(N/N=C/c1ccc([N+](=O)[O-])o1)c1ccc(C(=O)N/N=C/c2ccc([N+](=O)[O-])o2)cc1	> 100 µM (inactive)
COC(=O)C(Cc1c[nH]c2ccccc12)NC1=Nc2ccncc2S(=O)(=O)N1c1ccccc1 (stereo not given)	35 µM (inactive)
Cn1ccc(C(=O)NCCOCCNC(=O)c2ccn(C)c(=O)c2O)c(O)c1=O	> 100 µM (inactive)
C[C@@H]1CCC2[C@@H](C)[C@H](O[C@H]3O[C@@H]4O[C@@]5(C)CCC6[C@H](C)CCC([C@H]3C)[C@]64OO5)O[C@@H]3O[C@@]4(C)CCC1[C@@]23OO4 (stereo not given in full)	0.0553 µM (active)
Cc1ccc(S(=O)(=O)NC(=O)N[C@@H](Cc2c[nH]cn2)C(=O)O)cc1	> 100 µM (inactive)
Cc1cc(S(=O)(=O)Nc2nc(N)nc(N(C)C)n2)c(SCC(=O)O)cc1Cl	> 10 µM (inactive)
CCC12CCCN(Cc3ccccc3)C1c1c([nH]c3ccccc13)C(C(=O)OC)C2 (stereo not given)	> 10 µM (inactive)
C=Cc1nc(C#N)c(N)o1	> 100 µM (inactive)
NC(=S)N/N=C\c1ccc(OCc2cccc(COc3ccc(/C=N/NC(N)=S)cc3)n2)cc1	2.39 µM (inactive)
O=c1cc(CO)oc(C(O)c2ccccc2)c1O (stereo not given)	> 100 µM (inactive)
CC1OC(=O)c2ccccc2NC1=O (stereo not given)	> 100 µM (inactive)
CC(=O)Nc1ccc(C(=O)NN2C(=O)C(Cl)C2c2cc(Br)ccc2O)cc1 (stereo not given)	14.8 µM (inactive)
O=C1Nc2ccccc2/C1=C1/Nc2ccccc2/C1=N/OCCOCCO	2.38 µM (inactive)
N#Cc1c(O)nc2nn3c4ccc5ccccc5c4nnc3c2c1-c1ccc(Cl)cc1	0.174 µM (active)
N#Cc1c(NC(=O)C(F)(F)F)sc2c3c(=O)c4ccccc4c(=O)c=3oc3ccccc3c12	19.6 µM (inactive)
CCOc1ccc2c(c1)/C(=C(\C(Cl)=C(Cl)Cl)[N+](=O)[O-])N2	28.2 µM (inactive)
CC1=C(C(=O)NCCc2ccccc2)CC(C(=O)NCCc2ccccc2)=C(C)N1	> 100 µM (inactive)
CC1CCCCCC(=O)c2c(O)cc(O)cc2CC(=O)O1 (stereo not given)	54.1 µM (inactive)
CCn1nc2c3c(ncn3C(C)(C)O2)c1=O	> 100 µM (inactive)
O=C(O)C(Cc1ccc2c(c1)CCC2)(Cc1ccc2c(c1)CCC2)C(=O)O	> 100 µM (inactive)
Cc1[nH]c2ncn(N)c(=N)c2c1Cc1ccccc1	> 100 µM (inactive)
Cc1ccc(C2c3c(n(C)c(=O)n(C)c3=O)OC(N(C)C)(N(C)C)C2(F)F)cc1 (stereo not given)	> 100 µM (inactive)
CSc1nc(NC(C)C)c2c(n1)Sc1nc3ccccc3n1C2O (stereo not given)	6.79 µM (inactive)
Nc1nc(NCC2(CO)CCC2)cc(=O)[nH]1	> 100 µM (inactive)
O=C1c2c(O)ccc(O)c2C(=O)c2c(NCCNC(=O)C(O)C(O)C(O)C(O)CO)ccc(NCCNC(=O)C(O)C(O)C(O)C(O)CO)c21 (stereo not given)	0.121 µM (active)

* * *

tested on: NCI-H522; experiment: NCI tumour cell line growth inhibition, 48 h
The source made the active and inactive calls. No stated cut-off is given here; in the data, active = GI50 up to about 1.1 µM and inactive = higher.
Outcome codes: t for active, f for inactive

compound	classLabel
COC(=O)c1c(C(=O)OC)c2ccccn2c1-c1cc(OC)c(Br)c(=O)o1	f
CCOc1ccc(C2=C(Cl)c3cc(OC)c(OC)cc3C2Cl)cc1 (centres undefined)	f
C=C1C(=O)O[C@H]2C[C@@]3(COC(C)=O)C=COC=C(COC(=O)C(C)C)C3CC12 (some centres undefined)	f
COC(=O)/C=C\c1ccc2c(c1)CC1(C2)Cc2ccc(/C=C/C(=O)OC)cc2C1 (centres undefined)	f
N=C(/C=C/c1ccc(-c2cn3cc(/C=C/C(=N)N4CCCC4)ccc3n2)cc1)N1CCCC1	f
O=c1cc(CO)oc(C(O)c2ccccc2)c1O (centres undefined)	f
CSC1=C(SC)SC(=C2SC3=C(SC(=C4SCCS4)S3)S2)S1	f
CC[C@@]1(O)C(=O)OCc2c1cc1n(c2=O)Cc2c-1nc1ccccc1c2/C=N\c1ccc(N[C@@H]2c3cc4c(cc3[C@@H](c3cc(OC)c(O)c(OC)c3)[C@H]3C(=O)OC[C@@H]32)OCO4)cc1	t
N#Cc1c(NC(=O)C(F)(F)F)sc2c3c(=O)c4ccccc4c(=O)c=3oc3ccccc3c12	f
CC1(C)OC(=O)C(C#N)=C1/C=C/c1coc2ccc(Cl)cc2c1=O	f
COC(=O)/C=C1\CCC2[C@@H](C(=O)CC3[C@]2(C)CCC[C@@]3(C)C(=O)OC)C1C (some centres undefined)	f
COc1ccccc1/N=N/C(=N/NC(=O)c1ccc(C)cc1)c1ccc(N(CCC#N)CCC#N)cc1OC	f
O=S(=O)(O)c1ccc(NN(c2c(O)ccc3ccccc23)S(=O)(=O)O)cc1	f
CCOC(=O)c1cn2c(n1)sc1cc(Cl)ccc12	f
Cc1ccc(C)n1-c1ccccc1C1C=Cn2c(=O)oc3c(OC(C)C)c(OC(C)C)c(O)c1c32 (centres undefined)	f
O=C1c2ccccc2CCCCCCCCCCC12OCCCO2	f
Cc1cc(O)c2c(c1O)C(=O)c1c(O)ccc(O)c1C2=O	f
O=C(Nc1nncs1)NS(=O)(=O)n1cnc2ccccc21	f
O=C(/C=C1\Nc2ccccc2N\C1=C/C(=O)c1ccc(F)cc1)c1ccc(F)cc1	f
COc1cc(CNC(=O)CCCCCCCCCCSC#N)ccc1O	f
N#Cc1c(Nc2nc3ccccc3s2)c2ccccc2n2c1nc1ccccc12	f
O=C1[C@@H]2C(c3ccccc3[N+](=O)[O-])=[N+](c3ccccc3)O[C@@H]2C(=O)N1c1ccc(Cc2ccc(N3C(=O)[C@H]4C(c5ccccc5[N+](=O)[O-])=[N+](c5ccccc5)O[C@H]4C3=O)cc2)cc1	f
NNC(=O)CC(=O)Nc1ccc(S(=O)(=O)c2ccc(NC(=O)CC(=O)NN)cc2)cc1	f
CC(C)NC(=O)CCN(C(=O)O)S(=O)(=O)c1ccc(NC(=O)c2ccccc2)cc1	f
C#CC(O)Cc1ccc(OC)c2occc12 (centres undefined)	f
O=C(O)CCn1cnc2c(S)ncnc21	f
CCCCCC(=O)c1ccc2[nH]c3c(C)cc([N+](=O)[O-])c(C)c3c2c1	f
N=C(N)NS(=O)(=O)c1ccc(NC(=O)c2cccc3c(NNc4ccc(S(N)(=O)=O)cc4)c4ccccc4nc23)cc1	f
CN(C(=O)C1CCCCCC1=O)c1ccccc1Cl (centres undefined)	f
